Target: human B-Raf protein kinase (Homo sapiens)
Construct: GST (N); 14-420 (Mek1)
Assay: In vitro B-Raf/Mek1 composite kinase assay
pIC50: −log10 of the molar value.
metric name: pIC50

Examples from the recorded data:
>>> print(df.to_string())
                                   molecule  metric_name  result
0  Cn1cc(-c2cc(Oc3cccc(NC(=O)c4cccc5ccccc45)c3)ccn2)cn1 [Example 52]        pIC50  < 5.00
1  Cn1cc(-c2cc(Oc3cccc(NC(=O)c4ccc(-n5ccnc5)cc4)c3)ccn2)cn1 [Example 60]        pIC50  ≥ 5.00
2  CCOc1cc(OCC)cc(C(=O)Nc2cc(Oc3cc(-c4cnn(C)c4)ncn3)ccc2F)c1 [Example 17]        pIC50  < 5.00
3  Cn1cc(-c2cc(Oc3cccc(NC(=O)c4ccc(Oc5ccccc5)cc4)c3)ccn2)cn1 [Example 56]        pIC50  ≥ 5.00
4  CCOc1cc(OCC)cc(C(=O)Nc2ccc(Oc3ccnc(-c4cnn(C)c4)c3)cc2)c1 [Example 20]        pIC50  ≥ 5.00
5  Cn1cc(-c2cc(Oc3cccc(NC(=O)c4cccc(OC(F)(F)F)c4)c3)ccn2)cn1 [Example 40]        pIC50  < 5.00
6  Cn1cc(-c2cc(Oc3cccc(NC(=O)c4ccccc4-n4cccc4)c3)ccn2)cn1 [Example 57]        pIC50  ≥ 5.00
7  CCCCOc1ccc(C(=O)Nc2cccc(Oc3ccnc(-c4cnn(C)c4)c3)c2)cc1 [Example 76]        pIC50  ≥ 5.00
8  CCOc1cc(OCC)cc(C(=O)Nc2cccc(Oc3ccnc(C(=O)NC)c3)c2)c1 [Example 14]        pIC50  < 5.00
9  Cn1cc(-c2cc(Oc3cccc(NC(=O)c4ccc(Cl)c(C(F)(F)F)c4)c3)ncn2)cn1 [Example 25]        pIC50  < 5.00

// molecule CNC(=O)c1cc(Oc2cccc(NC(=O)c3ccc(OC)c(OC4CCCC4)c3)c2)ccn1 [Example 15] , assay human B-Raf protein kinase (Homo sapiens), pIC50 value: < 5.00

Lab note: molecule Cn1cc(-c2cc(Oc3cccc(NC(=O)c4cccc(-n5cnnc5)c4)c3)ccn2)cn1 [Example 38] tested on human B-Raf protein kinase (Homo sapiens); recorded pIC50 was ≥ 5.00

// assay human B-Raf protein kinase (Homo sapiens), entry CCOc1ccc(C(=O)Nc2cccc(Oc3ccnc(-c4nnco4)c3)c2)cc1OCC [Example 8] , pIC50 value = < 5.00

----------
Parameter 'readout' = IC50; parameter 'system' = VEGFR2 kinase (Homo sapiens).
Sequence (P35968 20-1356): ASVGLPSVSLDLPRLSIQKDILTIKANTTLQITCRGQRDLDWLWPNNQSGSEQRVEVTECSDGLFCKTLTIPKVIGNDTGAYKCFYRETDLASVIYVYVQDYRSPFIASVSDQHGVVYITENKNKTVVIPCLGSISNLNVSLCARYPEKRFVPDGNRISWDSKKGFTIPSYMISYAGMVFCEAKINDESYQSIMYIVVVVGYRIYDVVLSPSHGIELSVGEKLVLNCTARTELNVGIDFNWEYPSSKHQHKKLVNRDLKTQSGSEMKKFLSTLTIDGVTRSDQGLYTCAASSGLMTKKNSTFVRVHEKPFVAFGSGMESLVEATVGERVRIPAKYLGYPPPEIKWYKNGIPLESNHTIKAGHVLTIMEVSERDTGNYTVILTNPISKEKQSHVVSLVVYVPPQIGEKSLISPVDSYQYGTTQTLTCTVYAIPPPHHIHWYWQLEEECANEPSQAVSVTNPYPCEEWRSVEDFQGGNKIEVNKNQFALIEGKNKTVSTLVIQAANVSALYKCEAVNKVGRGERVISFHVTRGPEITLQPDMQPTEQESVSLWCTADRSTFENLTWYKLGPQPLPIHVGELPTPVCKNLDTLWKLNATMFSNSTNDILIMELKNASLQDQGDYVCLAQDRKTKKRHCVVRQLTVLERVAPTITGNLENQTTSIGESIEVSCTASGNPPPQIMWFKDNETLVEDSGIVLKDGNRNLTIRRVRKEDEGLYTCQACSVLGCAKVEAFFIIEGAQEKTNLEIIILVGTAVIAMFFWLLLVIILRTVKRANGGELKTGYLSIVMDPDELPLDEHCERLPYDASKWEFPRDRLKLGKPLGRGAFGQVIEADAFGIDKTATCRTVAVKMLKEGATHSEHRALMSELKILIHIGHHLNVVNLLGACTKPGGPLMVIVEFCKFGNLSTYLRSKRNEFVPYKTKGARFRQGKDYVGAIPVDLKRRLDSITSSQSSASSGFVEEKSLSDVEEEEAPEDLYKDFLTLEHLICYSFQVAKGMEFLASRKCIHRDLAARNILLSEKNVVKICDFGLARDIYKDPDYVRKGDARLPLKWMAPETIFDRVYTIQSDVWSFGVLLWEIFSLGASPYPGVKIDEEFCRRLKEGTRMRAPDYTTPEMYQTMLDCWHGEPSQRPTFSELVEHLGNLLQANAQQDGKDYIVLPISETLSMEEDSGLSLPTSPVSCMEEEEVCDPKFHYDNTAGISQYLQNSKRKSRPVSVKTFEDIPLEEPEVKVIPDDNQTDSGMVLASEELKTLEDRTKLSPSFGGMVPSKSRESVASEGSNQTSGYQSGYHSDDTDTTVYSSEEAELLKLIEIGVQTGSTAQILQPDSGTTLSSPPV

Worked cases, IC50 given:
>>> df
                                   compound  metric_name   result
0  CCOc1cc(C(=O)Nc2cccc(Oc3ccnc(-c4nnco4)c3)c2)cc(OCC)c1OCC [Example 2]         IC50  ≤ 10 µM
1  COc1ccc(C(=O)Nc2cccc(Oc3ccnc(-c4nnco4)c3)c2)cc1OC1CCCC1 [Example 9]         IC50  ≤ 10 µM
2  O=C(Nc1cccc(Oc2ccnc(-c3nnco3)c2)c1)c1ccc(Oc2ccccc2)cc1 [Example 5]         IC50  ≤ 10 µM
3  Cn1cc(-c2cc(Oc3cccc(NC(=O)c4ccccc4C(F)(F)F)c3)ccn2)cn1 [Example 43]         IC50  ≤ 10 µM
4  Cn1cc(-c2cc(Oc3cccc(NC(=O)c4ccc(OC(F)(F)F)cc4)c3)ncn2)cn1 [Example 23]         IC50  > 10 µM
5  Cn1cc(-c2cc(Oc3cccc(NC(=O)c4cncc(-n5cccc5)c4)c3)ccn2)cn1 [Example 35]         IC50  > 10 µM

With VEGFR2 kinase (Homo sapiens) as the test system, CCCCOc1cc(C(=O)Nc2cccc(Oc3ccnc(-c4nnco4)c3)c2)ccc1OC [Example 10] showed IC50 of ≤ 10 µM

----------
Biological target: human B-Raf protein kinase (Homo sapiens)
Construct: GST (N); 14-420 (Mek1)
Assay: In vitro B-Raf/Mek1 composite kinase assay
Let's look at some compounds and their measured IC50.

>>> print(df.to_string())
                                   compound                              study_target   result
0  Cn1cc(-c2cc(Oc3cccc(NC(=O)c4cccc(-c5cccnc5)c4)c3)ccn2)cn1  human B-Raf protein kinase (Homo sapiens)  > 10 µM
1  CC(C#N)c1cccc(C(=O)Nc2cccc(Oc3ccnc(-c4cnn(C)c4)c3)c2)c1 (racemic)  human B-Raf protein kinase (Homo sapiens)  > 10 µM
2  Cn1cc(-c2cc(Oc3cccc(NC(=O)c4cccc5[nH]ccc45)c3)ccn2)cn1  human B-Raf protein kinase (Homo sapiens)  ≤ 10 µM
3  CCOc1cc(C(=O)Nc2cccc(Oc3ccnc(C(=O)NC)c3)c2)cc(OCC)c1OCC  human B-Raf protein kinase (Homo sapiens)  > 10 µM
4  CN(C)c1cccc(C(=O)Nc2cccc(Oc3ccnc(-c4cnn(C)c4)c3)c2)c1  human B-Raf protein kinase (Homo sapiens)  > 10 µM

Measured IC50, `Cn1cc(-c2cc(Oc3cccc(NC(=O)c4ccc5[nH]ccc5c4)c3)ccn2)cn1` : ≤ 10 µM

Noted for `CCOc1cc(OCC)cc(C(=O)Nc2cccc(Oc3cc(-c4cnn(C)c4)ncn3)c2)c1` : its IC50 reads > 10 µM

Quick note, IC50 for `CCCOc1ccc(C(=O)Nc2cccc(Oc3ccnc(-c4cnn(C)c4)c3)c2)cc1` landed at ≤ 10 µM

----------
Below are IC50 values measured for VEGFR2 kinase (Homo sapiens, UniProt P35968).

IC50 reading for Cn1cc(-c2cc(Oc3cccc(NC(=O)c4ccc(C(F)(F)F)cc4)c3)ccn2)cn1 [Example 45] : > 10 µM

Quick note, IC50 for CCOc1cc(OCC)cc(C(=O)Nc2cc(Oc3cc(-c4cnn(C)c4)ncn3)ccc2F)c1 [Example 17] landed at > 10 µM

Value of measured IC50 for the entry Cn1cc(-c2cc(Oc3cccc(NC(=O)c4cccc(C(F)(F)F)c4)c3)ccn2)cn1 [Example 44] : > 10 µM

----------
Biological target: human B-Raf protein kinase (Homo sapiens)
Construct: GST (N); 14-420 (Mek1)
Experiment: In vitro B-Raf/Mek1 composite kinase assay
pIC50: −log10 of the molar value.
metric name: pIC50

See these solved cases before continuing.
>>> print(df.to_string())
                              smiles_string  result
0  Cn1cc(-c2cc(Oc3cccc(NC(=O)c4cccc5cc[nH]c45)c3)ccn2)cn1  ≥ 5.00
1  CC(C)Oc1ccc(C(=O)Nc2cccc(Oc3ccnc(-c4cnn(C)c4)c3)c2)cc1  ≥ 5.00
2  Cn1cc(-c2cc(Oc3cccc(NC(=O)c4cccc5c4OCC5)c3)ccn2)cn1  ≥ 5.00
3  Cn1cc(-c2cc(Oc3cccc(NC(=O)c4ccc(C(F)(F)F)cc4)c3)ccn2)cn1  ≥ 5.00

// pIC50 lookup, molecule = `Cn1cc(-c2cc(Oc3cccc(NC(=O)c4cccc5c4OCO5)c3)ccn2)cn1` , result: ≥ 5.00

# pIC50 (molecule: `Cn1cc(-c2cc(Oc3cccc(NC(=O)c4ccc5c(c4)OC(F)(F)O5)c3)ccn2)cn1` ) is < 5.00

The molecule `Cn1cc(-c2cc(Oc3cccc(NC(=O)c4cccc(-c5ccccc5)c4)c3)ccn2)cn1` showed pIC50 equal to < 5.00

Sample `CCCCOc1cc(C(=O)Nc2cccc(Oc3ccnc(-c4nnco4)c3)c2)ccc1OC` ; pIC50 observed: < 5.00

----------
Target: human B-Raf protein kinase (Homo sapiens, UniProt P15056)
Construct: GST (N); 14-420 (Mek1)
Sequence (P15056 416-766): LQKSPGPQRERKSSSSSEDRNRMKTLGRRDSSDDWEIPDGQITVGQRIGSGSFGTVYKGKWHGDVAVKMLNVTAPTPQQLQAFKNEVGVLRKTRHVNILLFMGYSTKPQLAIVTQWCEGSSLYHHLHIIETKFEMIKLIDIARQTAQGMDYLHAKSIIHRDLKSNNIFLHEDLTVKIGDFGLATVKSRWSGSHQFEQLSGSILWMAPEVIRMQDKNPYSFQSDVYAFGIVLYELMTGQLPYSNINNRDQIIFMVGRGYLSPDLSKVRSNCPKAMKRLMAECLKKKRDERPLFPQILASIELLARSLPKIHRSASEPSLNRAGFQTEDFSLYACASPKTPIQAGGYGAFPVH
Assay: In vitro B-Raf/Mek1 composite kinase assay
pIC50: −log10 of the molar value.
metric name: pIC50

                                   compound  result
0  Cn1cc(-c2cc(Oc3ccc(NC(=O)c4ccc(Cl)c(C(F)(F)F)c4)cc3)ccn2)cn1 [Example 22]  ≥ 5.00
1  Cn1cc(-c2cc(Oc3cccc(NC(=O)c4ccc5c(c4)C(=O)OC5=O)c3)ccn2)cn1 [Example 63]  ≥ 5.00
2  Cn1cc(-c2cc(Oc3ccc(F)c(NC(=O)c4ccc(Cl)c(C(F)(F)F)c4)c3)ncn2)cn1 [Example 26]  < 5.00
3  Cn1cc(-c2cc(Oc3cccc(NC(=O)c4ccccc4C(F)(F)F)c3)ccn2)cn1 [Example 43]  ≥ 5.00
4  O=C(Nc1cccc(Oc2ccnc(-c3nnco3)c2)c1)c1ccc(Oc2ccccc2)cc1 [Example 5]  < 5.00
5  CCOc1cc(C(=O)Nc2cccc(Oc3ccnc(-c4nnco4)c3)c2)cc(OCC)c1OCC [Example 2]  < 5.00

Note to self: pIC50 of Cn1cc(-c2cc(Oc3cccc(NC(=O)c4ccc5[nH]cnc5c4)c3)ccn2)cn1 [Example 64] with human B-Raf protein kinase (Homo sapiens, UniProt P15056) was ≥ 5.00

Per the reported human B-Raf protein kinase (Homo sapiens, UniProt P15056) data, Cn1cc(-c2cc(Oc3cccc(NC(=O)c4ccc(OC(F)(F)F)cc4OC(F)(F)F)c3)ccn2)cn1 [Example 42] has pIC50 of ≥ 5.00
